Listing of entries alongside the reported cytotoxicity at 10 µM.
# ASSAY COMMENT: Toxicity liver stage against HepG2, at 10uM
# Format: cell-based
# Parameters: test concentration 10 uM, cell line HepG2-A16-CD81EGFP
# CONDITION SUMMARY: human, HepG2-A16-CD81EGFP cells; read-out: INHIBITION
Give a bare numeral; the unit % is implied.

These recorded examples may help you get a feel for the data.
> print(dat)
                                   compound       measurement.name  number
1  CN(Cc1nnc(C2CC2)n1C)C1CCN(Cc2ccccc2F)C1 (stereo unspecified)  cytotoxicity at 10 µM   -15.1
2      CNc1ccc(C(=O)N(C)Cc2ccc3ccccc3n2)cn1  cytotoxicity at 10 µM     1.5
3    CC(=O)c1ccc(C(=O)NCc2ccnc(N(C)C)n2)cc1  cytotoxicity at 10 µM    0.69
4      CN(C)C(=O)c1n[nH]c2c1CN(CC1CCCCC1)C2  cytotoxicity at 10 µM    2.86
5  O=S(=O)(NCc1ccc(S(=O)(=O)N2CCCC2)s1)c1ccc(Cl)cc1  cytotoxicity at 10 µM     -44

Enquiry: For the compound COc1ccc(-n2ccc(C(=O)NCCN3CCC(C)CC3)n2)cc1 , give its measured cytotoxicity at 10 µM value.
Return: -6.48
